B1: OAS1 (parent)
chain: LTVYAWERGSMKTHFNTAQGFRTV

Variants of: B1
protocol: protein stability index of a GFP-peptide fusion (GPS, HEK-293T) (PSI 1-6); higher = more stable;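 also: lentivirally expressed fusions sorted by FACS into six bins by GFP to DsRed ratio, PSI derived from sequencing read proportions per bin multiplied by bin number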
measurement context: c terminus: a fixed tail appended
Record Fulfilled whenever protein stability index is at 2 or higher; record Not fulfilled when lower.

Look over these answered cases.
item sequence	class
LTVYAWERGSMKTHFNTSQGFRTV [A18S]	Not fulfilled
LTVYAWERGSMKMHFNTAQGFRTV [T13M]	Fulfilled
LTVYAWERTSMKTHFNTAQGFRTV [G9T]	Fulfilled
LTVYAWERGSMKTHFNTAQGFRTI [V24I]	Fulfilled

Could you please find out whether LTVYAWERGSMKTHFNTAQPFRTV [G20P] has protein stability index that meets 2 or exceeds it?
Fulfilled

Could you please find out whether LTVYAWERGSKKTHFNTAQGFRTV [M11K] has protein stability index that meets 2 or exceeds it?
Fulfilled

Could you please find out whether WTVYAWERGSMKTHFNTAQGFRTV [L1W] has protein stability index that meets 2 or exceeds it?
Fulfilled

Could you please find out whether ETVYAWERGSMKTHFNTAQGFRTV [L1E] has protein stability index that meets 2 or exceeds it?
Fulfilled
